These data points were gathered from the supplement of paper PMC10307832.

# Test system: NCI-H2347
# Procedure Text: relative viability (nuclei count vs DMSO), 5 days (fraction); higher = more cells survive
# Measurement Setup: first compound 0.253 µM
Please provide measured relative viability for the entries that follow.

Sample O=c1[nH]c2ccccc2n1C1CCN(CCCC(c2ccc(F)cc2)c2ccc(F)cc2)CC1 [Pimozide] + COc1cccc2cc(-c3nc([C@H]4CC[C@H](C(=O)O)CC4)n4ncnc(N)c34)[nH]c12 [OSI-027] (partner 0.5 µM) ; relative viability observed: 0.497

Entry Cc1cnc(-c2cnc(NCCNc3ccc(C#N)cn3)nc2-c2ccc(Cl)cc2Cl)[nH]1 + Nc1nc2[nH]cc(CCc3ccc(C(=O)N[C@@H](CCC(=O)O)C(=O)O)cc3)c2c(=O)[nH]1 [Pemetrexed] (partner 0.2 µM) ; relative viability = 0.42

Note to self: relative viability recorded for Cc1cnc(-c2cnc(NCCNc3ccc(C#N)cn3)nc2-c2ccc(Cl)cc2Cl)[nH]1 + Cc1cc(Nc2cc(N3CCN(C)CC3)nc(Sc3ccc(NC(=O)C4CC4)cc3)n2)n[nH]1 [Tozasertib] (partner 0.1 µM) was 0.466

Measured relative viability of O=c1[nH]c2ccccc2n1C1CCN(CCCC(c2ccc(F)cc2)c2ccc(F)cc2)CC1 [Pimozide] + CC(C)C[C@H](NC(=O)[C@H](Cc1ccccc1)NC(=O)c1cnccn1)B(O)O [Bortezomib] (partner 0.002 µM) : 0.858

====

# Test system: NCI-H522
# Procedure Text: relative viability (nuclei count vs DMSO), 5 days (fraction); higher = more cells survive
# Measurement Setup: first compound 15.81 µM
Value Type: relative viability
# print the numeric value only

The compound identified as O=C(O)CCCCC(CCSCc1ccccc1)SCc1ccccc1 (stereo unspecified) [CPI-613] + N=C(N)NC(=N)NCCc1ccccc1 [Phenformin] (partner 250 µM) registered its relative viability at 0.672

Kindly note the recorded relative viability for O=C(O)CCCCC(CCSCc1ccccc1)SCc1ccccc1 (stereo unspecified) [CPI-613] + O=C(c1cc(Cc2n[nH]c(=O)c3ccccc23)ccc1F)N1CCN(C(=O)C2CC2)CC1 [Olaparib] (partner 8 µM) , which is 0.533

The value of relative viability measured for the compound O=C(O)CCCCC(CCSCc1ccccc1)SCc1ccccc1 (stereo unspecified) [CPI-613] + Cc1cc(Nc2cc(N3CCN(C)CC3)nc(Sc3ccc(NC(=O)C4CC4)cc3)n2)n[nH]1 [Tozasertib] (partner 0.1 µM) turned out to be 0.563

relative viability measured on O=C(O)CCCCC(CCSCc1ccccc1)SCc1ccccc1 (stereo unspecified) [CPI-613] + COc1cccc2cc(-c3nc([C@H]4CC[C@H](C(=O)O)CC4)n4ncnc(N)c34)[nH]c12 [OSI-027] (partner 0.5 µM) = 0.747

Recorded relative viability (compound O=C(O)CCCCC(CCSCc1ccccc1)SCc1ccccc1 (stereo unspecified) [CPI-613] + CC(=O)c1c(C)c2cnc(Nc3ccc(N4CCNCC4)cn3)nc2n(C2CCCC2)c1=O [Palbociclib] (partner 0.5 µM) ): 1.13

Per the records, this compound ( O=C(O)CCCCC(CCSCc1ccccc1)SCc1ccccc1 (stereo unspecified) [CPI-613] + O=C(CCCCCCC(=O)Nc1ccccc1)NO [Vorinostat] (partner 1 µM) ) has relative viability equal to 0.812

====

# Test system: ABC-1
# Procedure Text: relative viability (nuclei count vs DMSO), 5 days (fraction); higher = more cells survive
# Measurement Setup: first compound 0.253 µM
With a cut-off of 1, any relative viability strictly below it is called fulfilled; any relative viability meeting it or above is called not fulfilled.

Item O=c1[nH]c2ccccc2n1C1CCN(CCCC(c2ccc(F)cc2)c2ccc(F)cc2)CC1 [Pimozide] + O=C(CCCCCCC(=O)Nc1ccccc1)NO [Vorinostat] (partner 1 µM) : relative viability beneath 1, strictly? not fulfilled

Consider Cc1cnc(-c2cnc(NCCNc3ccc(C#N)cn3)nc2-c2ccc(Cl)cc2Cl)[nH]1 + CS(=O)(=O)N1CCN(Cc2cc3nc(-c4cccc5[nH]ncc45)nc(N4CCOCC4)c3s2)CC1 [Pictilisib] (partner 1 µM) . Does its relative viability lie strictly below 1? fulfilled

Given the entry O=c1[nH]c2ccccc2n1C1CCN(CCCC(c2ccc(F)cc2)c2ccc(F)cc2)CC1 [Pimozide] + CCNC(=O)c1noc(-c2cc(C(C)C)c(O)cc2O)c1-c1ccc(CN2CCOCC2)cc1 [Luminespib] (partner 0.01 µM) , would its reported relative viability be below 1? fulfilled

API: query returns whether the compound falls strictly under 1 in relative viability. Query: Cc1cnc(-c2cnc(NCCNc3ccc(C#N)cn3)nc2-c2ccc(Cl)cc2Cl)[nH]1 + COc1cccc2cc(-c3nc([C@H]4CC[C@H](C(=O)O)CC4)n4ncnc(N)c34)[nH]c12 [OSI-027] (partner 0.5 µM) fulfilled
